Listing: recombinant barcode read abundance (log10) of selected sequences
# ASSAY METHOD TEXT: recombinant barcode read abundance after kanamycin selection (control-corrected) (log10(CPM+1)); higher = more efficient recombination; sequences stand for … in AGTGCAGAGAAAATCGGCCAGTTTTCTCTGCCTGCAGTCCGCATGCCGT…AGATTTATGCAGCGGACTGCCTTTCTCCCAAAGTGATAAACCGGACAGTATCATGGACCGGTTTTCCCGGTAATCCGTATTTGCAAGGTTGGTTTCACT; site = the 11-nt target
Kindly provide the number alone.

Which recombinant barcode read abundance (log10) value belongs to CGGACGGCTTGGGTTCTAACCTGTTGCCT (site CGGACGCCTAG) ?
0.285

Fill in the blank: the reported recombinant barcode read abundance (log10) of TGGAACACTTGGGTTCTAACCTGTTGCCT (site TGGACCACTAG) is ____.
0.0483

Find the recorded recombinant barcode read abundance (log10) belonging to AATATCTCTTGGGTTCTAACCTGTTGCCA (site CTACCTACTCC) and report it.
0.144

// lookup recombinant barcode read abundance (log10) for GGTCGACCTTGGGTTCTAACCTGTTGCCT (site AGTCGACCTAG)
0.0754

What value of measured recombinant barcode read abundance (log10) is listed for AAATTGACTTGGGTTCTAACCTGTTGCCT (site AATTTGACTAG) ?
0.0913

I have this sequence here, ATGCGAGCTTGGGTTCTAACCTGTTGCAG (site ATGCGAGCTCC) , and I need its recorded recombinant barcode read abundance (log10).
0.0805

Dear colleague, I am looking for the recorded recombinant barcode read abundance (log10) of the following sequence: TCCGAAGCTTGGGTTCTAACCTGTTGCTA (site TCCGAAGCTTA)
0.29

Return reported recombinant barcode read abundance (log10); argument: TGTCGCTCTTGGGTTCTAACCTGTTGCCT (site TGGCGCTCTAG)
0.129

----------
# ASSAY METHOD TEXT: recombinant UMI read abundance after kanamycin selection (control-corrected) (log10(CPM+1)); higher = more efficient recombination; extreme values may be limits of the assay; sequences stand for … in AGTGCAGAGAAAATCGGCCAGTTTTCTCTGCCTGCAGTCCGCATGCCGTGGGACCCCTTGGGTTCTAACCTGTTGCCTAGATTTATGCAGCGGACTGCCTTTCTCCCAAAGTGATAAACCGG…AGGTTGGTTTCACT; site = the 11-nt donor
Think of 0.6 as a floor: if recombinant UMI read abundance (log10) stands on it or above, it is Fulfilled; beneath it, Not fulfilled.

Check out these entries, answers already filled in.
| RESIDUE STRING | CLASS NAME |
| --- | --- |
| AATGTTTCATGGACCGGTTTTCCCGGTAATCCGTATTTGAC (site AATGTCTCTGT) | Not fulfilled |
| CAATCATCATGGACCGGTTTTCCCGGTAATCCGTATTTGCT (site CAATCATCTAG) | Fulfilled |
| GAAGTGACATGGACCGGTTTTCCCGGTAATCCGTATTTGCG (site GAAGTGACTCG) | Fulfilled |
| GCTCGCCCATGGACCGGTTTTCCCGGTAATCCGTATTTGAT (site GCTCGCCCTAT) | Not fulfilled |
| GGTACCTCATGGACCGGTTTTCCCGGTAATCCGTATTTGTT (site GGTACTTCTAA) | Not fulfilled |

# check: recombinant UMI read abundance (log10) of CCCATATCATGGACCGGTTTTCCCGGTAATCCGTATTTGGC (site CCCATATCTGC) is greater than or equal to 0.6
Not fulfilled

I'd appreciate it if you could say whether GTAGGTTCATGGACCGGTTTTCCCGGTAATCCGTATTTGAC (site GTAGGTGCTGT) has recombinant UMI read abundance (log10) at least equal to 0.6.
Not fulfilled

Check if recombinant UMI read abundance (log10) >= 0.6 (inclusive). Item: CCCGTTCCATGGACCGGTTTTCCCGGTAATCCGTATTTGCA (site CCCGGTCCTTG)
Not fulfilled

Can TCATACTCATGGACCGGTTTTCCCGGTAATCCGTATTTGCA (site TCCTACTCTTG) be said to have recombinant UMI read abundance (log10) at or above 0.6?
Fulfilled
